test system: Escherichia coli; experiment: Antibacterial activity against extended spectrum beta-lactamases non-producing Escherichia coli ATCC 25922 by broth microdilution method; type: functional
readout_name: MIC

[[record]]
record_smiles = "CC[C@H]1OC(=O)[C@H](C)C(=O)[C@H](C)[C@@H](O[C@@H]2O[C@H](C)C[C@H](N(C)C)[C@H]2O)[C@](C)(OC)C[C@@H](C)C(=O)[C@H](C)[C@H]2N(CC/C=C/c3cncc4cc(OCc5ccccc5)ccc34)C(=O)O[C@]12C"
readout_name = "MIC"
result = "> 256 µg/mL"

[[record]]
record_smiles = "CC[C@H]1OC(=O)[C@H](C)C(=O)[C@H](C)[C@@H](O[C@@H]2O[C@H](C)C[C@H](N(C)C)[C@H]2O)[C@](C)(OC)C[C@@H](C)C(=O)[C@H](C)[C@H]2N(CC/C=C/c3cncc4ccc(OCc5ccccc5)cc34)C(=O)O[C@]12C"
readout_name = "MIC"
result = "> 256 µg/mL"

[[record]]
record_smiles = "CC[C@H]1OC(=O)[C@H](C)[C@@H](O[C@H]2C[C@@](C)(OC)[C@@H](O)[C@H](C)O2)[C@H](C)[C@@H](O[C@@H]2O[C@H](C)C[C@H](N(C)C)[C@H]2O)[C@](C)(OC)C[C@@H](C)C(=O)[C@H](C)[C@@H](O)[C@]1(C)O"
readout_name = "MIC"
result = "16 µg/mL"


---

Here, each record is paired with measured MIC data.
tested on: Haemophilus influenzae; assay: Antibacterial activity against azithromycin-sensitive Haemophilus influenzae 11P042 by broth microdilution method; format: functional
readout_name: MIC (µg/mL)

[[record]]
molecule = "CC[C@H]1OC(=O)[C@H](C)C(=O)[C@H](C)[C@@H](O[C@@H]2O[C@H](C)C[C@H](N(C)C)[C@H]2O)[C@](C)(OC)C[C@@H](C)C(=O)[C@H](C)[C@H]2N(CCCSc3cnc4ccccc4c3)C(=O)O[C@]12C"
numeric_readout = 16

[[record]]
molecule = "CC[C@H]1OC(=O)[C@H](C)[C@@H](O[C@H]2C[C@@](C)(OC)[C@@H](O)[C@H](C)O2)[C@H](C)[C@@H](O[C@@H]2O[C@H](C)C[C@H](N(C)C)[C@H]2O)[C@](C)(OC)C[C@@H](C)C(=O)[C@H](C)[C@@H](O)[C@]1(C)O [CLARITHROMYCIN]"
numeric_readout = 8

[[record]]
molecule = "CC[C@H]1OC(=O)[C@H](C)C(=O)[C@H](C)[C@@H](O[C@@H]2O[C@H](C)C[C@H](N(C)C)[C@H]2O)[C@](C)(OC)C[C@@H](C)C(=O)[C@H](C)[C@H]2N(CCCCc3cnc4ccccc4c3)C(=O)O[C@]12C"
numeric_readout = 0.5

[[record]]
molecule = "CC[C@H]1OC(=O)[C@H](C)C(=O)[C@H](C)[C@@H](O[C@@H]2O[C@H](C)C[C@H](N(C)C)[C@H]2O)[C@](C)(OC)C[C@@H](C)C(=O)[C@H](C)[C@H]2N(CCCCn3cnc(-c4cccnc4)c3)C(=O)O[C@]12C [TELITHROMYCIN]"
numeric_readout = 1

[[record]]
molecule = "CC[C@H]1OC(=O)[C@H](C)C(=O)[C@H](C)[C@@H](O[C@@H]2O[C@H](C)C[C@H](N(C)C)[C@H]2O)[C@](C)(OC)C[C@@H](C)C(=O)[C@H](C)[C@H]2N(CCCNc3cnc4ccccc4c3)C(=O)O[C@]12C"
numeric_readout = 8

[[record]]
molecule = "CC[C@H]1OC(=O)[C@H](C)C(=O)[C@H](C)[C@@H](O[C@@H]2O[C@H](C)C[C@H](N(C)C)[C@H]2O)[C@](C)(OC)C[C@@H](C)C(=O)[C@H](C)[C@H]2N(CCCOc3cnc4ccccc4c3)C(=O)O[C@]12C"
numeric_readout = 1

[[record]]
molecule = "CC[C@H]1OC(=O)[C@H](C)C(=O)[C@H](C)[C@@H](O[C@@H]2O[C@H](C)C[C@H](N(C)C)[C@H]2O)[C@](C)(OC)C[C@@H](C)C(=O)[C@H](C)[C@H]2N(CC/C=C/c3cnc4ccccc4c3)C(=O)O[C@]12C"
numeric_readout = 1


---

test system: Staphylococcus aureus; assay: Antibacterial activity against methicillin-sensitive Staphylococcus aureus ATCC 29213 by broth microdilution method; type: functional
readout_name: MIC (mg/L)

[[record]]
molecule = "CC[C@H]1OC(=O)[C@H](C)C(=O)[C@H](C)[C@@H](O[C@@H]2O[C@H](C)C[C@H](N(C)C)[C@H]2O)[C@](C)(OC)C[C@@H](C)C(=O)[C@H](C)[C@H]2N(CCCCn3cnc(-c4cccnc4)c3)C(=O)O[C@]12C [TELITHROMYCIN]"
measurement_target = "Staphylococcus aureus"
readout_name = "MIC"
numeric_readout = 0.015

[[record]]
molecule = "CC[C@H]1OC(=O)[C@H](C)C(=O)[C@H](C)[C@@H](O[C@@H]2O[C@H](C)C[C@H](N(C)C)[C@H]2O)[C@](C)(OC)C[C@@H](C)C(=O)[C@H](C)[C@H]2N(CC/C=C/c3cncc4ccccc34)C(=O)O[C@]12C"
measurement_target = "Staphylococcus aureus"
readout_name = "MIC"
numeric_readout = 0.015

[[record]]
molecule = "CC[C@H]1OC(=O)[C@H](C)C(=O)[C@H](C)[C@@H](O[C@@H]2O[C@H](C)C[C@H](N(C)C)[C@H]2O)[C@](C)(OC)C[C@@H](C)C(=O)[C@H](C)[C@H]2N(CC/C=C/c3cncc4cc(C)ccc34)C(=O)O[C@]12C"
measurement_target = "Staphylococcus aureus"
readout_name = "MIC"
numeric_readout = 0.06

[[record]]
molecule = "CC[C@H]1OC(=O)[C@H](C)C(=O)[C@H](C)[C@@H](O[C@@H]2O[C@H](C)C[C@H](N(C)C)[C@H]2O)[C@](C)(OC)C[C@@H](C)C(=O)[C@H](C)[C@H]2N(CC/C=C/c3cncc4ccc(OCc5ccccc5)cc34)C(=O)O[C@]12C"
measurement_target = "Staphylococcus aureus"
readout_name = "MIC"
numeric_readout = 1

[[record]]
molecule = "CC[C@H]1OC(=O)[C@H](C)[C@@H](O[C@H]2C[C@@](C)(OC)[C@@H](O)[C@H](C)O2)[C@H](C)[C@@H](O[C@@H]2O[C@H](C)C[C@H](N(C)C)[C@H]2O)[C@](C)(OC)C[C@@H](C)C(=O)[C@H](C)[C@@H](O)[C@]1(C)O [CLARITHROMYCIN]"
measurement_target = "Staphylococcus aureus"
readout_name = "MIC"
numeric_readout = 0.12

[[record]]
molecule = "CC[C@H]1OC(=O)[C@H](C)C(=O)[C@H](C)[C@@H](O[C@@H]2O[C@H](C)C[C@H](N(C)C)[C@H]2O)[C@](C)(OC)C[C@@H](C)C(=O)[C@H](C)[C@H]2N(CC/C=C/c3cncc4cc(OCc5ccccc5)ccc34)C(=O)O[C@]12C"
measurement_target = "Staphylococcus aureus"
readout_name = "MIC"
numeric_readout = 1

[[record]]
molecule = "CC[C@H]1OC(=O)[C@H](C)C(=O)[C@H](C)[C@@H](O[C@@H]2O[C@H](C)C[C@H](N(C)C)[C@H]2O)[C@](C)(OC)C[C@@H](C)C(=O)[C@H](C)[C@H]2N(CCCOc3ccc4cccnc4c3)C(=O)O[C@]12C"
measurement_target = "Staphylococcus aureus"
readout_name = "MIC"
numeric_readout = 0.015

[[record]]
molecule = "CC[C@H]1OC(=O)[C@@](C)(F)C(=O)[C@H](C)[C@@H](O[C@@H]2O[C@H](C)C[C@H](N(C)C)[C@H]2O)[C@](C)(OC)C[C@@H](C)C(=O)[C@H](C)[C@H]2N(CCCOc3cnc4ccccc4c3)C(=O)O[C@]12C"
measurement_target = "Staphylococcus aureus"
readout_name = "MIC"
numeric_readout = 0.015

[[record]]
molecule = "CC[C@H]1OC(=O)[C@H](C)C(=O)[C@H](C)[C@@H](O[C@@H]2O[C@H](C)C[C@H](N(C)C)[C@H]2O)[C@](C)(OC)C[C@@H](C)C(=O)[C@H](C)[C@H]2N(CC/C=C/c3cncc4ccc(-c5ccccc5)cc34)C(=O)O[C@]12C"
measurement_target = "Staphylococcus aureus"
readout_name = "MIC"
numeric_readout = 1

[[record]]
molecule = "CC[C@H]1OC(=O)[C@H](C)C(=O)[C@H](C)[C@@H](O[C@@H]2O[C@H](C)C[C@H](N(C)C)[C@H]2O)[C@](C)(OC)C[C@@H](C)C(=O)[C@H](C)[C@H]2N(CC/C=C/c3cncc4cc(OC)ccc34)C(=O)O[C@]12C"
measurement_target = "Staphylococcus aureus"
readout_name = "MIC"
numeric_readout = 0.06

[[record]]
molecule = "CC[C@H]1OC(=O)[C@@](C)(F)C(=O)[C@H](C)[C@@H](O[C@@H]2O[C@H](C)C[C@H](N(C)C)[C@H]2O)[C@](C)(OC)C[C@@H](C)C(=O)[C@H](C)[C@H]2N(CC/C=C/c3cnc4ccccc4c3)C(=O)O[C@]12C"
measurement_target = "Staphylococcus aureus"
readout_name = "MIC"
numeric_readout = 0.015

